- System: 817829-284-R-J1-PDC complex spheroid viability
- assayProtocol: Anticancer human tumor 817829-284-R-J1-PDC patient-derived colon adenocarcinoma cell line growth inhibition [POLQ]
- testConditions: curve of first compound; second compound 3.16 µM
Measured IC50, listed per entry for reference.

COc1cccc(OCCCN)c1-c1cc(Nc2cnc(C#N)cn2)n[nH]1 + Nc1ccc(C#CCN(C(=O)Cc2ncc(C(F)(F)F)cc2C(F)(F)F)c2ccc(F)cc2)nn1: 0.00541 µM
CC(=O)O[C@H]1C(=O)[C@@]2(C)[C@H]([C@H](OC(=O)c3ccccc3)[C@]3(O)C[C@H](OC(=O)[C@H](O)[C@@H](NC(=O)c4ccccc4)c4ccccc4)C(C)=C1C3(C)C)[C@]1(OC(C)=O)CO[C@@H]1C[C@@H]2O + Cc1cccc(N(C)C(=O)C2C(O)CCN2c2nc(C)cc(C(F)(F)F)c2C#N)c1: < 0.00949 µM
CNCc1ccc(-c2[nH]c3cc(F)cc4c3c2CCNC4=O)cc1 + COC1C(OC(N)=O)C(O)C(Oc2ccc3c(O)c(NC(=O)c4ccc(O)c(CC=C(C)C)c4)c(=O)oc3c2C)OC1(C)C: 5.17 µM

The record that follows has no IC50 shown yet.
Looking for the measured IC50 of COc1cc(C2c3cc4c(cc3C(OC3OC5COC(C)OC5C(O)C3O)C3COC(=O)C23)OCO4)cc(OC)c1O (centres undefined) + COC1C(OC(N)=O)C(O)C(Oc2ccc3c(O)c(NC(=O)c4ccc(O)c(CC=C(C)C)c4)c(=O)oc3c2C)OC1(C)C , can you help?
0.0749 µM

###

- System: 817829-284-R-J1-PDC complex spheroid viability
- assayProtocol: Anticancer human tumor 817829-284-R-J1-PDC cell line growth inhibition [POLQ];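 also: spheroids exposed to compounds for 7 days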;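 as to viability, T/C: 100% = DMSO vehicle-treated spheroids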
- testConditions: second compound 1 µM; first compound 0.316 µM; stronger effect = lower value
- Protocol: Multicellular complex tumor spheroid response to Polymerase (POL) inhibitors (novobiocin, ART-558, RP6685) in combination with a variety of drugs and investigational agents in selected tumor cell lines The POL inhibitors (novobiocin, ART-558, and RP6685) were evaluated both individually and in combination with standard of care and investigational anticancer small molecules within a complex spheroid model of solid tumors. . […]
assayMetric: viability, T/C (%)
Give your result in % as a bare value.

COc1cccc2c1C(=O)c1c(O)c3c(c(O)c1C2=O)CC(O)(C(=O)CO)CC3OC1CC(N)C(O)C(C)O1 (stereo not drawn) + Nc1ccc(C#CCN(C(=O)Cc2ncc(C(F)(F)F)cc2C(F)(F)F)c2ccc(F)cc2)nn1: 5.1

Looking for the measured viability, T/C of CCc1cc2c(N3CCc4c(cc(Cn5ccnc5)cc4-c4cn(C)nc4C(F)(F)F)C3=O)ccnc2c(OC)n1 + Cc1cccc(N(C)C(=O)C2C(O)CCN2c2nc(C)cc(C(F)(F)F)c2C#N)c1 , can you help?
76.8

Looking for the measured viability, T/C of CC1COCCN1c1cc(C2(O)CC3CCC(C2)O3)c2cnn(-c3ccn[nH]3)c2n1 (stereo not drawn) + Cc1cccc(N(C)C(=O)C2C(O)CCN2c2nc(C)cc(C(F)(F)F)c2C#N)c1 , can you help?
4.66

###

- Test system: 817829-284-R-J1-PDC complex spheroid viability
- assayProtocol: Anticancer human tumor 817829-284-R-J1-PDC cell line growth inhibition [POLQ];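 also: spheroids exposed to compounds for 7 days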;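 as to viability, T/C: 100% = DMSO vehicle-treated spheroids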
- testConditions: second compound 0.316 µM; first compound 0.1 µM; stronger effect = lower value
Measured viability, T/C, listed per entry for reference.
Give your result in % as a bare value.

Here are 2 molecules together with their reported answers.
C#Cc1c(F)ccc2cc(O)cc(-c3ncc4c(N5CC6CCC(C5)N6)nc(OCC56CCCN5CC(F)C6)nc4c3F)c12 (stereo not drawn) + Cc1cccc(N(C)C(=O)C2C(O)CCN2c2nc(C)cc(C(F)(F)F)c2C#N)c1: 75.8
CC(C)n1c(=O)n(C)c2cnc3cc(F)c(-c4ccc(OCCCN5CCCCC5)nc4)cc3c21 + Cc1cccc(N(C)C(=O)C2C(O)CCN2c2nc(C)cc(C(F)(F)F)c2C#N)c1: 83.3

The record that follows has no viability, T/C shown yet.
Looking for the measured viability, T/C of C=CCn1c(=O)c2cnc(Nc3ccc(N4CCN(C)CC4)cc3)nc2n1-c1cccc(C(C)(C)O)n1 + Cc1cccc(N(C)C(=O)C2C(O)CCN2c2nc(C)cc(C(F)(F)F)c2C#N)c1 , can you help?
84.9

###

- Test system: 817829-284-R-J1-PDC complex spheroid viability
- assayProtocol: Anticancer human tumor 817829-284-R-J1-PDC cell line growth inhibition [POLQ];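 also: spheroids exposed to compounds for 7 days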;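 as to viability, T/C: 100% = DMSO vehicle-treated spheroids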
- testConditions: second compound 0.1 µM; first compound 0.00316 µM; stronger effect = lower value
assayMetric: viability, T/C (%)
Give your result in % as a bare value.

Here are 5 compounds together with their reported answers.
Cn1ncnc1[C@H]1c2n[nH]c(=O)c3cc(F)cc(c23)N[C@@H]1c1ccc(F)cc1 + COC1C(OC(N)=O)C(O)C(Oc2ccc3c(O)c(NC(=O)c4ccc(O)c(CC=C(C)C)c4)c(=O)oc3c2C)OC1(C)C: 52.9
COc1cccc(OCCCN)c1-c1cc(Nc2cnc(C#N)cn2)n[nH]1 + Cc1cccc(N(C)C(=O)C2C(O)CCN2c2nc(C)cc(C(F)(F)F)c2C#N)c1: 86.8
C=CCn1c(=O)c2cnc(Nc3ccc(N4CCN(C)CC4)cc3)nc2n1-c1cccc(C(C)(C)O)n1 + Cc1cccc(N(C)C(=O)C2C(O)CCN2c2nc(C)cc(C(F)(F)F)c2C#N)c1: 91.6
COc1cccc(OCCCN)c1-c1cc(Nc2cnc(C#N)cn2)n[nH]1 + Nc1ccc(C#CCN(C(=O)Cc2ncc(C(F)(F)F)cc2C(F)(F)F)c2ccc(F)cc2)nn1: 77.1
CCc1c2c(nc3ccc(O)cc13)-c1cc3c(c(=O)n1C2)COC(=O)[C@]3(O)CC + Nc1ccc(C#CCN(C(=O)Cc2ncc(C(F)(F)F)cc2C(F)(F)F)c2ccc(F)cc2)nn1: 20.9

The record that follows has no viability, T/C shown yet.
Looking for the measured viability, T/C of CCc1c2c(nc3ccc(O)cc13)-c1cc3c(c(=O)n1C2)COC(=O)[C@]3(O)CC + COC1C(OC(N)=O)C(O)C(Oc2ccc3c(O)c(NC(=O)c4ccc(O)c(CC=C(C)C)c4)c(=O)oc3c2C)OC1(C)C , can you help?
17.9

###

Measured pIC50, listed per entry for reference.
- System: 817829-284-R-J1-PDC complex spheroid viability
- assayProtocol: Anticancer human tumor 817829-284-R-J1-PDC cell line growth inhibition [POLQ];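 also: spheroids exposed to compounds for 7 days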
- testConditions: curve of first compound; second compound 0.1 µM
pIC50: −log10 of the molar value.

CNCc1ccc(-c2[nH]c3cc(F)cc4c3c2CCNC4=O)cc1 + COC1C(OC(N)=O)C(O)C(Oc2ccc3c(O)c(NC(=O)c4ccc(O)c(CC=C(C)C)c4)c(=O)oc3c2C)OC1(C)C: < 5.00
C#Cc1c(F)ccc2cc(O)cc(-c3ncc4c(N5CC6CCC(C5)N6)nc(OCC56CCCN5CC(F)C6)nc4c3F)c12 (stereo not drawn) + Nc1ccc(C#CCN(C(=O)Cc2ncc(C(F)(F)F)cc2C(F)(F)F)c2ccc(F)cc2)nn1: < 5.00

The record that follows has no pIC50 shown yet.
Looking for the measured pIC50 of CCCS(=O)(=O)Nc1ccc(F)c(C(=O)c2c[nH]c3ncc(-c4ccc(Cl)cc4)cc23)c1F + COC1C(OC(N)=O)C(O)C(Oc2ccc3c(O)c(NC(=O)c4ccc(O)c(CC=C(C)C)c4)c(=O)oc3c2C)OC1(C)C , can you help?
5.48

###

- Tested on: 817829-284-R-J1-PDC complex spheroid viability
- assayProtocol: Anticancer human tumor 817829-284-R-J1-PDC cell line growth inhibition [POLQ];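 also: spheroids exposed to compounds for 7 days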;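 as to viability, T/C: 100% = DMSO vehicle-treated spheroids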
- testConditions: second compound 10 µM; first compound 0.00316 µM; stronger effect = lower value
Measured viability, T/C, listed per entry for reference.
Give your result in % as a bare value.

Here are 2 molecules together with their reported answers.
COc1cccc(OCCCN)c1-c1cc(Nc2cnc(C#N)cn2)n[nH]1 + Cc1cccc(N(C)C(=O)C2C(O)CCN2c2nc(C)cc(C(F)(F)F)c2C#N)c1: 76.6
C=CCn1c(=O)c2cnc(Nc3ccc(N4CCN(C)CC4)cc3)nc2n1-c1cccc(C(C)(C)O)n1 + Cc1cccc(N(C)C(=O)C2C(O)CCN2c2nc(C)cc(C(F)(F)F)c2C#N)c1: 118

Looking for the measured viability, T/C of CCc1c2c(nc3ccc(O)cc13)-c1cc3c(c(=O)n1C2)COC(=O)[C@]3(O)CC + COC1C(OC(N)=O)C(O)C(Oc2ccc3c(O)c(NC(=O)c4ccc(O)c(CC=C(C)C)c4)c(=O)oc3c2C)OC1(C)C , can you help?
23.3

###

- Test system: 817829-284-R-J1-PDC complex spheroid viability
- assayProtocol: Anticancer human tumor 817829-284-R-J1-PDC cell line growth inhibition [POLQ];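 also: spheroids exposed to compounds for 7 days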;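 as to viability, T/C: 100% = DMSO vehicle-treated spheroids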
- testConditions: second compound 1 µM; first compound 10 µM; stronger effect = lower value
assayMetric: viability, T/C (%)
Give your result in % as a bare value.

Looking for the measured viability, T/C of CCc1cc2c(N3CCc4c(cc(Cn5ccnc5)cc4-c4cn(C)nc4C(F)(F)F)C3=O)cc(C)nc2c(OC)n1 + Nc1ccc(C#CCN(C(=O)Cc2ncc(C(F)(F)F)cc2C(F)(F)F)c2ccc(F)cc2)nn1 , can you help?
23

Looking for the measured viability, T/C of CCCS(=O)(=O)Nc1ccc(F)c(C(=O)c2c[nH]c3ncc(-c4ccc(Cl)cc4)cc23)c1F + COC1C(OC(N)=O)C(O)C(Oc2ccc3c(O)c(NC(=O)c4ccc(O)c(CC=C(C)C)c4)c(=O)oc3c2C)OC1(C)C , can you help?
13

Looking for the measured viability, T/C of O=C(Nc1ccc(O)c(NS(=O)(=O)c2ccc(F)cc2)c1)c1ccc(-c2ccccc2)cc1 + COC1C(OC(N)=O)C(O)C(Oc2ccc3c(O)c(NC(=O)c4ccc(O)c(CC=C(C)C)c4)c(=O)oc3c2C)OC1(C)C , can you help?
39.6

Looking for the measured viability, T/C of COc1cc2cc(C(=O)CCC(=O)O)sc2cc1OC + COC1C(OC(N)=O)C(O)C(Oc2ccc3c(O)c(NC(=O)c4ccc(O)c(CC=C(C)C)c4)c(=O)oc3c2C)OC1(C)C , can you help?
86.1

Looking for the measured viability, T/C of COc1cc2cc(C(=O)CCC(=O)O)sc2cc1OC + Nc1ccc(C#CCN(C(=O)Cc2ncc(C(F)(F)F)cc2C(F)(F)F)c2ccc(F)cc2)nn1 , can you help?
112

Looking for the measured viability, T/C of CCc1cc2c(N3CCc4c(cc(Cn5ccnc5)cc4-c4cn(C)nc4C(F)(F)F)C3=O)ccnc2c(OC)n1 + Nc1ccc(C#CCN(C(=O)Cc2ncc(C(F)(F)F)cc2C(F)(F)F)c2ccc(F)cc2)nn1 , can you help?
31

Looking for the measured viability, T/C of COc1cc(C2c3cc4c(cc3C(OC3OC5COC(C)OC5C(O)C3O)C3COC(=O)C23)OCO4)cc(OC)c1O (configuration not stated) + Cc1cccc(N(C)C(=O)C2C(O)CCN2c2nc(C)cc(C(F)(F)F)c2C#N)c1 , can you help?
6.32

Looking for the measured viability, T/C of C#Cc1c(F)ccc2cc(O)cc(-c3ncc4c(N5CC6CCC(C5)N6)nc(OCC56CCCN5CC(F)C6)nc4c3F)c12 (configuration not stated) + COC1C(OC(N)=O)C(O)C(Oc2ccc3c(O)c(NC(=O)c4ccc(O)c(CC=C(C)C)c4)c(=O)oc3c2C)OC1(C)C , can you help?
36.5

Looking for the measured viability, T/C of Nc1ccn(C2OC(CO)C(O)C2(F)F)c(=O)n1 (configuration not stated) + Nc1ccc(C#CCN(C(=O)Cc2ncc(C(F)(F)F)cc2C(F)(F)F)c2ccc(F)cc2)nn1 , can you help?
1.87

Looking for the measured viability, T/C of COc1ccc([C@@H](O)c2cc(-c3ncnc4cc(N5CCOCC5)ccc34)c(F)cc2Cl)nn1 + COC1C(OC(N)=O)C(O)C(Oc2ccc3c(O)c(NC(=O)c4ccc(O)c(CC=C(C)C)c4)c(=O)oc3c2C)OC1(C)C , can you help?
18.9

Looking for the measured viability, T/C of O=C(c1cc(Cc2n[nH]c(=O)c3ccccc23)ccc1F)N1CCN(C(=O)C2CC2)CC1 + Cc1cccc(N(C)C(=O)C2C(O)CCN2c2nc(C)cc(C(F)(F)F)c2C#N)c1 , can you help?
26.6

Looking for the measured viability, T/C of COc1cccc2c1C(=O)c1c(O)c3c(c(O)c1C2=O)CC(O)(C(=O)CO)CC3OC1CC(N)C(O)C(C)O1 (configuration not stated) + Cc1cccc(N(C)C(=O)C2C(O)CCN2c2nc(C)cc(C(F)(F)F)c2C#N)c1 , can you help?
0.51
